- System: lacZ under control of the tetA promoter (PtetA) in E. coli KM3
- Format: cell-based
- condition-set: Table 6, reverse repressor hits; anhydrotetracycline (0.4 μM)
Output yes for records whose relative β-galactosidase activity, inducer atc is lower than 4, no for records at or above 4.

>  <molecule>
L1-36: library L1 hit with reverse repressor activity (SEQ ID NO: 1206-1213) (protein, rSuR L1-36) MGSRLDKSKVINSALELLNEVGIEGLTTRKLAQKLGVEQPTLYWHVKNKRALLDALAIEMADRHHTHFCPLEGESWQDFLRNAAKSMRCALLSHRDGAKVRLGTAWTEKQYETHENVLAFLCQQGFSLENALYALKAVSGFTLGCVLKDQEMQVAKEERETPTTDSMPPLLRQATELVDHQGAEPAFLFGLELIICGLEKQLKCESGS

>  <assigned-category>
yes

$$$$
>  <molecule>
L1-33: library L1 hit with reverse repressor activity (SEQ ID NO: 1206-1213) (protein, rSuR L1-33) MGSRLDKSKVINSALELLNEVGIEGLTTRKLAQKLGVEQPTLYWHVKNKRALLDALAIEMLDRHATHFCPLEGESWQDFLRNNAKSMRCALLSHRDGAKVQLGTAATEKQYETLENKLAFLCQQGFSLENALYAHSAVTQFTLGCVLRDQEGQVAKEERETPTTDSMPPLLRQARELRDHQGAEPAFLFGLELIICGLEKQLKCESGS

>  <assigned-category>
no

$$$$
>  <molecule>
L1-25: library L1 hit with reverse repressor activity (SEQ ID NO: 1206-1213) (protein, rSuR L1-25) MGSRLDKSKVINSALELLNEVGIEGLTTRKLAQKLGVEQPTLYWHVKNKRALLDALAIEMLDRHATHFCPLEGESWQDFLRNTAKSMRCALLSHRDGAKVLLGTATTEKQYETLENLLAFLYQQGFSLENALYAWQAVWRFTLGCVLIDQETQVAKEERETPTTDSMPPLLRQAVELKDHQGAEPAFLFGLELIICGLEKQLKCETGS

>  <assigned-category>
yes

$$$$
>  <molecule>
L1-41: library L1 hit with reverse repressor activity (SEQ ID NO: 1206-1213) (protein, rSuR L1-41) MGSRLDKSKVINSALELLNEVGIEGLTTRKLAQKLGVEQPTLYWHVKNKRALLDALAIEMLDRNQTHFCPLEGESWQDFLRNNAKSWRCALLSHRDGAKVMLGTRNTEKQYETAENGLAFLCQQGFSLENALYACRAVWTFTLGCVLDDQETQVAKEERETPTSDSMPPLLRQAMELKDHQGAEPAFLFGLELIICGLEKQLKCESGS

>  <assigned-category>
no

$$$$
>  <molecule>
L1-39: library L1 hit with reverse repressor activity (SEQ ID NO: 1206-1213) (protein, rSuR L1-39) MGSRLDKSKVINSALELLNEVGIEGLTTRKLAQKLGVEQPTLYWHVKNKRALLDALAIEMMDRHQTHFCPLEGESWQDFLRNTAKSYRCALLSHRDGAKVILGTRWTEKQYETRENVLAFLCQQGFSLENALYAWAAVGPFTLGCVLRDQERQVAKEERETPTTDSMPPLLRQALELMDHQGAEPAFLFGLELIICGLEKQLKCESGS

>  <assigned-category>
no

$$$$
>  <molecule>
L1-18: library L1 hit with reverse repressor activity (SEQ ID NO: 1206-1213) (protein, rSuR L1-18) MGSRLDKSKVINSALELLNEVGIEGLTTRKLAQKLGVEQPTLYWHVKNKRALLDALAIEMLDRHLTHFCPLEGESWQDFLRNNAKSMRCALLSHRDGAKVWLGTGFTEKQYETKENRLAFLCQQGFSLENALYAIRAVSRFTLGCVLQDQEPQVAKEERETPTTDSMPPLLRQAVELFDHQGAEPAFLFGLELIICGLEKQLKCESES

>  <assigned-category>
yes

$$$$
>  <molecule>
L1-21: library L1 hit with reverse repressor activity (SEQ ID NO: 1206-1213) (protein, rSuR L1-21) MGSRLDKSKVINSALELLNEVGIEGLTTRKLAQKLGVEQPTLYWHVKNKRALLDALAIEMLDRHATHFCPLEGESWQDFLRNNAKSFRCALLSHRDGAKVCLGTAGTEKQYETLENCLAFLCQQGFSLENALYARSAVVCFTLGCVLFDQEMQVAKEERETPTTDSMPPLLRQAAELLDHQGAEPAFLFGLELIICGLEKQLKCESGS

>  <assigned-category>
yes

$$$$
>  <molecule>
L1-34: library L1 hit with reverse repressor activity (SEQ ID NO: 1206-1213) (protein, rSuR L1-34) MGSRLDKSKVINSALELLNEVGIEGLTTRKLAQKLGVEQPTLYWHVKNKRALLDALAIEMADRHNTHFCPLEGESWQDFLRNAARSMRCALLSHRDGAKVYLGTARTEKQYETTENVLAFLCQQGFSLENALYAVRAVPRFTLGCVLLDQERQVAKEERETPTTDSMPPLLRQARELTDHQGAEPAFLFGLELIICGLEKQLKCESGS

>  <assigned-category>
yes

$$$$
